experimental_protocol: soluble on expression in E. coli; label from the status in PepcDB or PDB records
endpoint_label: soluble on expression in E. coli

Worked set:
item_sequence	soluble on expression in E. coli
MERVSITERPDWREKAHEYGFNFHTMYGEPYWCEDAYYKLTLAQVEKLEEVTAELHQMCLKVVEKVIASDELMTKFRIPKHTWSFVRQSWLTHQPSLYSRLDLAWDGTGEPKLLENNADTPTSLYEAAFFQWIWLEDQLNAGNLPEGSDQFNSLQEKLIDRFVELREQYGFQLLHLTCCRDTVEDRGTIQYLQDCATEAEIATEFLYIDDIGLGEKGQFTDLQDQVISNLFKLYPWEFMLREMFSTKLEDAGVRWLEPAWKSIISNKALLPLLWEMFPNHPNLLPAYFAEDDHPQMEKYVVKPIFSREGANVSIIENGKTIEAAEGPYGEEGMIVQQFHPLPKFGDSYMLIGSWLVNDQPAGIGIREDRALITQDMSRFYPHIFVE	soluble
MGSDKIHHHHHHMLISLEDTNYTLVKEYLEKSVNHHILQRYIDNHNFPIIEKSYHKYLTFESLEEDFTYILKDGIVKQSVLSKYGMEFNLRYVTGLEITSVLNTGYSKDMGEPYNVRIESEKASFYKVRRSAFLKDINEDIELQGYVKDFYHNRLQKSMKKMQCMLTNGRIGAISTQIYDLMTLFGEELPNGQILINFVITNEELGKFCGISTASSVSRILKQLKEKNIIRIDKQHIIITNLDKLKDNIVF	not soluble
MSQQYVYSMLRVSKVVPPQKTIIKDISLSFFPGAKIGLLGLNGAGKSTVLRIMAGVDKEFEGEAVPMGGIKIGYLPQEPELDPEKTVREEVESGLGEVAAAQKRLEEVYAEYANPDADFDALAEEQGRLEAIIAAGSSTGGGAEHELEIAADALRLPEW	not soluble
MGSDKIHHHHHHMSDSEKSNSRLFDLDLLRAIVTVADCGSFTTAAARLHSTQSTVSQKVRRLEEMAGHRLLERGNRDVLPTDAGDTLLGYARRLLALNDELAEALSGATVALTVRIGVPDDFAAGRTTERLAAFNRRYPQVKLEVTSGMSRDLSASYDRGELDLVLLKQRRASREALACWPEKTCWVDSARNPCIDLDPLPIVTFPPRGVYRDEMIAALEAVGRRWHISFTSSSLSGLQSAIADGMGIGLLPLRAVSAGHAVLPKNVGLPAVDVFEVALLHRPAADPMVKALARVLSRVLAEDTRSRPAFEK	not soluble
MGSDKIHHHHHHMSAIERITKAAHLIDMNDIIREGNPTLRTVAEEVTFPLSDQEIILGEKMMQFLKHSQDPVMAEKMGLRGGVGLAAPQLDISKRIIAVLVPNIVEEGETPQEAYDLEAIMYNPKIVSHSVQDAALGEGEGCLSVDRNVPGYVVRHARVTVDYFDKDGEKHRIKLKGYNSIVVQHEIDHINGIMFYDRINEKDPFAVKDGLLILE	soluble

Now turn to the next sequence.
Query: Query (sequence): MAHHHHHHMFSRHSLWVPAASHFPKFVEHFNRFLKASPHNVELQKALCYKEEETQLLIIQDPKARQPIFAMAFPFTVTSALCDGSRMGLGTFTSLVDTTTSLHVAAALLPTNDMHVSVSLQTNCVQPITAGEKVVMISRMDKFGKRLAFLSARLLRLDDVYENTVAPTAGRELEELERQLSQYQTLANGTHVKCILTGKS ; field requested: soluble on expression in E. coli
Result: not soluble

====

experimental_protocol: soluble on expression in E. coli; label from the status in PepcDB or PDB records
endpoint_label: soluble on expression in E. coli

item_sequence	endpoint_label	readout_value
MKPNLLPMNLQMFAEEDGGTNFTFDDFKAFVESNEEAQKFVQSQSQSAADKQLEAWKQNNLEKIKETTIKEYEESKKNKTPEQIKLEELQAEFEAEKALRVTSDNKAFVAEKIAGLDWDGDLKDSISQFMLNNLVSSDTEFTKKAVEGFTELLEAINDKHAEAIKNVEMTKAFGNKSQQTNMGTGNQTKSFENPEVALGQKLQAFID	soluble on expression in E. coli	not soluble
MKTKPQAPHVDFYEKSELLHFLDCASKHENPQAFMFFRLLAFTGLRRGEALALQWSDINFETNELTVNKTQAVGKRWRTIIQTPKTNTSYRTIVLDPDTAQWLHKWKMTQARQCFELGFNANDPSQLVFTNQQNKLMSPSTVNYFNWSICKKYGLRHIKIHAFRHTFCTLAFEAHAGINEVSKTLGHADLKITEQIYLHVTKKQKNETASKLARYMSELLEHHHHHH	soluble on expression in E. coli	soluble
MSGEPELIELRELAPAGRAGKGRTRLERANALRIARGTACNPTRQLVPGRGHRFQPAGPATHTWCDLCGDFIWGVVRKGLQCARLSADCKFTCHYRCRALVCLDCCGPRDLGWEPAVERDTNVDEPVEWETPDLSQAEIEQKIKEYNAQINSNLFMSLNKDGSYTGFIKVQLKLVRPVSVPSSKKPPSLQDARRGPGRGTSVRRRTSFYLPKDAVKHLHVLSRTRAREVIEALLRKFLVVDDPRKFALFERAERHGQVYLRKLLDDEQPLRLRLLAGPSDKALSFVLKENDSGEVNWDAFSMPELHNFLRILQREEEEHLRQILQKYSYCRQKIQEALHACPLGLEHHHHHH	soluble on expression in E. coli	not soluble
MSLKKDYGSQEDFTQVWNTTMKGLKCCGFTNYTDFEDSPYFKENSAFPPFCCNDNVTNTANETCTKQKAHDQKVEGCFNQLLYDIRTNAVTVGEGHHHHHH	soluble on expression in E. coli	soluble
MEKSLVDTVYALKDEVQELRQDNKKMKKSLEEEQRARKDLEKLVRKVLKNMNDPAWDETNL	soluble on expression in E. coli	soluble

Query: Using the record for MSRLRSTPIPGTRDSYTQVDFNLGFHVRHYDVSLDYVVAPNRLKAVVTLSMDTYQPLRSLTLDLSDALTVKSVTAQGTSAVAVRVQKFRHRNHKLRISFTEEIPVDQEFKITVTYSGNPRPIRSTWGLIGWEELSNGSLVASQPNGARSWLPCDDTPDEK , report its soluble on expression in E. coli.
Result: not soluble

Query: Consider the sequence MSELDQLRQEAEQLKSQIREARKSANDTTLATVASNLEPIGRIQMRTRRTLRGHLAKIYAMHWASDSRNLVSASQDGKLIVWDSYTTNKVHAIPLRSSWVMTCAYAPSGSFVACGGLDNICSIYSLKTREGNVRVSRELPGHTGYLSCCRFLDDNQIVTSSGDMTCALWDIETGQQCTAFTGHTGDVMSLSLSPDFRTFISGACDASAKLWDIRDGMCKQTFPGHESDINAVAFFPSGNAFATGSDDATCRLFDIRADQELAMYSHDNIICGITSVAFSKSGRLLFAGYDDFNCNVWDSMRQERAGVLAGHDNRVSCLGVTEDGMAVCTGSWDSFLKIWN and give its measured soluble on expression in E. coli.
Result: soluble

====

experimental_protocol: soluble on expression in E. coli; label from the status in PepcDB or PDB records
endpoint_label: soluble on expression in E. coli

item_sequence	readout_value
MKAEKVRLRKQIIEHMNSLSEEQYTTLSEQIAFSLYAQKEWVEAKTIGITLSMENEVNTYPIIEKAWEEGKKVVVPKCNKGTRTMSFRQINNFDQLETVYMNLREPIPGLTEEVNMDEIDLQIVPGVAYTERGERIGYGGGYYDRYLVHYKGKTLSLAYDFQMVKHIPVEPFDKNIEKIITEKGTLLTNKLVLEHHHHHH	soluble
RPPLQEYVRKLLYKDLSKVTTEKVLRQMRKLPWQDQEVKDYVICCMINIWNVKYNSIHCVANLLAGLVLYQEDVGIHVVDGVLEDIRLGMEVNQPKFNQRRISSAKFLGELYNYRMVESAVIFRTLYSFTSFGVNPDGSPSSLDPPEHLFRIRLVCTILDTCGQYFDRGSSKRKLDCFLVYFQRYVWWKKSLEVWTKDHPFPIDIDYMISDTLELLRPKIKLCNSLEESIRQVQDLEREFLIKLGLVN	soluble
GSPEFKTIDASVSKKAADSTSQCGKATGSDSSGVIDLTMDDEESGASQD	soluble

====

experimental_protocol: soluble on expression in E. coli; label from the status in PepcDB or PDB records

item_sequence	soluble on expression in E. coli
SMSQIMYNYPAMLGHAGDMAGYAGTLQSLGAEIAVEQAALQSAWQGDTGITYQAWQAQWNQAMEDLVRAYHAMSSTHEANTMAMMARDTAEAAKWGG	soluble
AMSTQGLVQLLANAQCHLRTSTNYNGVHTQFNSALNYKNNGTNTIDGSEAWCSSIVDTNQYIVAGCEVPRTFMCVALQGRGDADQWVTSYKIRYSLDNVSWFEYRNGAAVTGVTDRNTVVNHFFDTPIRARSIAIHPLTWNGHISLRCEFYTQPVQSSVTQVGADIYTGDNCALNTGSGKREVVVPVKFQFEFATLPKVALNFDQIDCTDATNQTRIGVQPRNITTKGFDCVFYTWNENKVYSLRADYIATALE	soluble
